Every entry's value here was drawn from PubChem BioAssay.

Known inhibition of a selection of compounds
# test name: VP16 transactivation reporter inhibitors, counter-screen for LRH-1 inverse agonist project, cell-based, luminescence, high throughput (AID 651615)
# protocol conditions: Gal4-VP16 luciferase reporter cells, at 3.6 µM, hits give high values
Provide only the numeric value, understood in %.

> print(dat)
                                   compound  reported.value
1    Cc1ccc(NCCN(C)C)c2c(=O)c3cc(O)ccc3sc12            55.7
2   Cc1cc([N+](=O)[O-])ccc1NCc1ccc2ccccc2c1            2.64
3  O=C(Nc1nc(-c2ccccn2)cs1)c1ccc([N+](=O)[O-])o1            16.4
4  COc1ccc(CCNC(=O)CSc2ccc(NC(C)=O)cc2)cc1OC           -3.78

For the compound `CC(=O)c1cccc(NC(=O)c2ccc([N+](=O)[O-])o2)c1` , what inhibition is on record?
-5.65

Thanks! And `Cc1cc(C(=O)CSc2ccc(F)cc2)cc(C)c1OC(=S)N(C)C` ?
-17.3

Thanks! And `CCOc1ccc(OCCC(=O)OCC(=O)Nc2ccc3c(c2)OCCO3)cc1` ?
-6.23

Thanks! And `O=C(Cc1ccc(Cl)cc1Cl)Nc1ccncc1` ?
48.6

Thanks! And `O=C(NCc1cccnc1)/C(=C\c1ccc(-c2ccc(Br)cc2)o1)S(=O)(=O)c1ccccc1` ?
80.8
